Cited source for all entries: paper PMC5874678

biological target: ACAT in NIH-3T3-CCK2R-E151A cells (3T3-EA) (Mus musculus); construct: endogenous in cells; assay: ACAT activity in intact 3T3-EA cells; settings: 24 h, [14C]cholesterol, read-out: IC50, inhibition of ACAT activity in intact cells
Sequence (Q61263 whole entry, stated change not applied): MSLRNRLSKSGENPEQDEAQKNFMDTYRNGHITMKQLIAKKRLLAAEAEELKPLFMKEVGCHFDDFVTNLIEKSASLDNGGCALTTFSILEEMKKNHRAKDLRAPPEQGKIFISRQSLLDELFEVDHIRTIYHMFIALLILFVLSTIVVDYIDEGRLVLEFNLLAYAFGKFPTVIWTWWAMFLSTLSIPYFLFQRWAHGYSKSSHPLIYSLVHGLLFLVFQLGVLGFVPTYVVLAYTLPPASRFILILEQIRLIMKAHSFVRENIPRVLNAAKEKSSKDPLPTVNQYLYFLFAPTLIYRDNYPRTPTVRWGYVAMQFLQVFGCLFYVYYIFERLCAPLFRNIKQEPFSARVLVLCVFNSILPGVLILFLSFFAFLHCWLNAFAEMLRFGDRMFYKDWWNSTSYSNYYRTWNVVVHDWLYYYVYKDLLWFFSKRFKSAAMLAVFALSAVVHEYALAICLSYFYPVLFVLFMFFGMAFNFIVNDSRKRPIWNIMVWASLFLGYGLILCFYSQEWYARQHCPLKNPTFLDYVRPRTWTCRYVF

| Compound | Value Units | IC50 |
| --- | --- | --- |
| C=C(C)[C@@H]1CC[C@]2(C(=O)O)CC[C@]3(C)[C@H](CC[C@@H]4[C@@]5(C)CC[C@H](O)C(C)(C)[C@@H]5CC[C@]43C)[C@@H]12 | µM | 60.2 |
| CC1(C)[C@@H](O)CC[C@]2(C)C3=C(CC[C@@H]12)[C@@]1(C)CC[C@@]2(C)CC[C@@](C)(C(=O)O)C[C@H]2[C@]1(C)CC3 | µM | 19.4 |
| CCCCCCCCCC[Si](C)(C)CCC(=O)NC(Cc1ccc(C)cc1)c1ccccc1 (stereo not drawn) | µM | 7.4 |
